- Tested on: human laryngeal carcinoma (HEP2) cells
- measurement protocol: SRB cytotoxic assay, HEP2
- Type: cell-based
- assay conditions: HEp-2, 48 h, single dose 100 µg/mL, read-out: %Inhibition at100 µg/mL HEP2
- Description: All the prepared compounds were screened at a concentration of 100 µg/mL against six different human cell lines: human laryngeal carcinoma (HEP2), human colorectal carcinoma (HCT116), human breast carcinoma (MCF7), human Lung carcinoma (A549), human liver carcinoma (HEPG2), and normal African Green monkey kidney cell line (VERO). Doxorubicin was used as a positive control for comparison purposes. […]
readout kind: inhibition at 100 µg/mL

- COc1cccc2c1C(=O)c1c(O)c3c(c(O)c1C2=O)C[C@@](O)(C(=O)CO)C[C@@H]3O[C@H]1C[C@H](N)[C@H](O)[C@H](C)O1 [Doxorubicin, reference compound]: 83.2%
- O=C(COc1ccc(C=CC(=O)c2cccs2)cc1)Nc1ccc(Cl)cc1: 0.36%
- O=C(COc1ccc(C(=O)C=Cc2cccs2)cc1)Nc1ccccc1: > 75%
- O=C(COc1ccc(C(=O)C=Cc2cccs2)cc1)Nc1ccc(Cl)cc1: 17.9%

----------
A collection of compounds and their measured melting point
readout kind: melting point

* COc1ccc(NC(=O)COc2ccc(C(=O)C=Cc3cccs3)cc2)cc1 | 205 to 207 °C
* O=C(COc1ccc(C=CC(=O)c2cccs2)cc1)Nc1ccc(Cl)cc1 | 198 to 200 °C
* O=C(COc1ccc(C=CC(=O)c2cccs2)cc1)Nc1ccccc1 | 194 to 196 °C
* O=C(COc1ccc(C(=O)C=Cc2cccs2)cc1)Nc1ccc(Cl)cc1 | 193 to 195 °C
* Cc1ccc(NC(=O)COc2ccc(C(=O)C=Cc3cccs3)cc2)cc1 | 200 to 202 °C
* Cc1ccc(NC(=O)COc2ccc(C=CC(=O)c3cccs3)cc2)cc1 | 202 to 204 °C

----------
- Test system: human laryngeal carcinoma (HEP2) cells
- measurement protocol: SRB cytotoxic assay, HEP2
- Type: cell-based
- assay conditions: HEp-2, 48 h, single dose 100 µg/mL, read-out: %Inhibition at100 µg/mL HEP2
- Experimental: All the prepared compounds were screened at a concentration of 100 µg/mL against six different human cell lines: human laryngeal carcinoma (HEP2), human colorectal carcinoma (HCT116), human breast carcinoma (MCF7), human Lung carcinoma (A549), human liver carcinoma (HEPG2), and normal African Green monkey kidney cell line (VERO). Doxorubicin was used as a positive control for comparison purposes. […]
readout kind: inhibition at 100 µg/mL (%)

* Cc1ccc(NC(=O)COc2ccc(C(=O)C=Cc3cccs3)cc2)cc1 | 17.9
* Cc1ccc(NC(=O)COc2ccc(C=CC(=O)c3cccs3)cc2)cc1 | 7.2
* O=C(COc1ccc(C=CC(=O)c2cccs2)cc1)Nc1ccccc1 | 4.53
* COc1ccc(NC(=O)COc2ccc(C(=O)C=Cc3cccs3)cc2)cc1 | 7.2

----------
- System: human breast carcinoma (MCF7) cells
- measurement protocol: SRB cytotoxic assay, MCF7
- Type: cell-based
- assay conditions: MCF7, 48 h, single dose 100 µg/mL, read-out: %Inhibition at100 µg/mL MCF7
# binarize inhibition at 100 µg/mL: threshold 30% inclusive, high side 1, low side 0

* COc1cccc2c1C(=O)c1c(O)c3c(c(O)c1C2=O)C[C@@](O)(C(=O)CO)C[C@@H]3O[C@H]1C[C@H](N)[C@H](O)[C@H](C)O1 [Doxorubicin, reference compound] | 1
* O=C(COc1ccc(C(=O)C=Cc2cccs2)cc1)Nc1ccccc1 [Compound 9a] | 1
* COc1ccc(NC(=O)COc2ccc(C=CC(=O)c3cccs3)cc2)cc1 [Compound 5c] | 1
* O=C(COc1ccc(C(=O)C=Cc2cccs2)cc1)Nc1ccc(Cl)cc1 [Compound 9d] | 0
* COc1ccc(NC(=O)COc2ccc(C(=O)C=Cc3cccs3)cc2)cc1 [Compound 9c] | 0
* O=C(COc1ccc(C=CC(=O)c2cccs2)cc1)Nc1ccccc1 [Compound 5a] | 1
* Cc1ccc(NC(=O)COc2ccc(C=CC(=O)c3cccs3)cc2)cc1 [Compound 5b] | 0
* Cc1ccc(NC(=O)COc2ccc(C(=O)C=Cc3cccs3)cc2)cc1 [Compound 9b] | 0
* O=C(COc1ccc(C=CC(=O)c2cccs2)cc1)Nc1ccc(Cl)cc1 [Compound 5d] | 1
